tested on: Mus musculus; experiment: AUMC after intraperitoneal administration of 100 mg/kg in mice; assay type: ADME, organism-based; design: dose 100 mg/kg, route intraperitoneal; settings: in vivo, ip
PROPERTY: AUMC
Could you kindly put the unit after your number?

I'd like to know its AUMC. The compound in question is "O=C(Cc1ccccc1)Nc1c2c(nc3ccccc13)N(Cc1ccccc1)CC2"
9.4 µg·h²/mL

###

Quick reference: Ratio of the listed items.
assay: Ratio of the Pgp to that of MRP1 was determined; format: functional
Answer with a bare number; do not write a unit.

The cases that follow already have their Ratio on record.
CCN(CC)CC(=O)Nc1c2c(nc3ccccc13)N(C)CC2 ... 5
CC(C)NCC(=O)Nc1c2c(nc3ccccc13)N(C)CC2 ... 1.3
Nc1c2c(nc3ccccc13)N(C1CCCCC1)CC2 ... 1.3

# lookup: Ratio of "CCN(CC)CC(=O)Nc1c2c(nc3ccccc13)N(Cc1ccccc1)CC2"
15

Further, for "CC(C)NCC(=O)Nc1c2c(nc3ccccc13)N(Cc1ccccc1)CC2" ?
13

Continue with "Nc1c2c(nc3cc(Br)ccc13)N(C1CCCCC1)CC2"
1

Continue with "CN1CCc2c1nc1ccccc1c2NC(=O)Cc1ccccc1"
5.6

How about "CC(C)(C)c1cc(CCC(=O)Nc2c3c(nc4ccccc24)N(Cc2ccccc2)CC3)cc(C(C)(C)C)c1O" ?
11

What about this compound? "Nc1c2c(nc3ccccc13)N(c1ccccc1)CC2"
2.5

Moving on to "CN1CCc2c1nc1ccccc1c2NC(=O)C12CC3CC(CC(C3)C1)C2"
5.2

Item: "CCCCN1CCc2c1nc1cc(Br)ccc1c2N"
1.1

###

biological target: Multidrug resistance-associated protein 1 (Homo sapiens); assay: MRP1 antagonism was determined percentage of MCF-7/VP cells surviving in the absence of vincristine/percentage of MCF-7/VP cells surviving in the presence of vincristine; format: functional
Sequence (P33527 whole entry): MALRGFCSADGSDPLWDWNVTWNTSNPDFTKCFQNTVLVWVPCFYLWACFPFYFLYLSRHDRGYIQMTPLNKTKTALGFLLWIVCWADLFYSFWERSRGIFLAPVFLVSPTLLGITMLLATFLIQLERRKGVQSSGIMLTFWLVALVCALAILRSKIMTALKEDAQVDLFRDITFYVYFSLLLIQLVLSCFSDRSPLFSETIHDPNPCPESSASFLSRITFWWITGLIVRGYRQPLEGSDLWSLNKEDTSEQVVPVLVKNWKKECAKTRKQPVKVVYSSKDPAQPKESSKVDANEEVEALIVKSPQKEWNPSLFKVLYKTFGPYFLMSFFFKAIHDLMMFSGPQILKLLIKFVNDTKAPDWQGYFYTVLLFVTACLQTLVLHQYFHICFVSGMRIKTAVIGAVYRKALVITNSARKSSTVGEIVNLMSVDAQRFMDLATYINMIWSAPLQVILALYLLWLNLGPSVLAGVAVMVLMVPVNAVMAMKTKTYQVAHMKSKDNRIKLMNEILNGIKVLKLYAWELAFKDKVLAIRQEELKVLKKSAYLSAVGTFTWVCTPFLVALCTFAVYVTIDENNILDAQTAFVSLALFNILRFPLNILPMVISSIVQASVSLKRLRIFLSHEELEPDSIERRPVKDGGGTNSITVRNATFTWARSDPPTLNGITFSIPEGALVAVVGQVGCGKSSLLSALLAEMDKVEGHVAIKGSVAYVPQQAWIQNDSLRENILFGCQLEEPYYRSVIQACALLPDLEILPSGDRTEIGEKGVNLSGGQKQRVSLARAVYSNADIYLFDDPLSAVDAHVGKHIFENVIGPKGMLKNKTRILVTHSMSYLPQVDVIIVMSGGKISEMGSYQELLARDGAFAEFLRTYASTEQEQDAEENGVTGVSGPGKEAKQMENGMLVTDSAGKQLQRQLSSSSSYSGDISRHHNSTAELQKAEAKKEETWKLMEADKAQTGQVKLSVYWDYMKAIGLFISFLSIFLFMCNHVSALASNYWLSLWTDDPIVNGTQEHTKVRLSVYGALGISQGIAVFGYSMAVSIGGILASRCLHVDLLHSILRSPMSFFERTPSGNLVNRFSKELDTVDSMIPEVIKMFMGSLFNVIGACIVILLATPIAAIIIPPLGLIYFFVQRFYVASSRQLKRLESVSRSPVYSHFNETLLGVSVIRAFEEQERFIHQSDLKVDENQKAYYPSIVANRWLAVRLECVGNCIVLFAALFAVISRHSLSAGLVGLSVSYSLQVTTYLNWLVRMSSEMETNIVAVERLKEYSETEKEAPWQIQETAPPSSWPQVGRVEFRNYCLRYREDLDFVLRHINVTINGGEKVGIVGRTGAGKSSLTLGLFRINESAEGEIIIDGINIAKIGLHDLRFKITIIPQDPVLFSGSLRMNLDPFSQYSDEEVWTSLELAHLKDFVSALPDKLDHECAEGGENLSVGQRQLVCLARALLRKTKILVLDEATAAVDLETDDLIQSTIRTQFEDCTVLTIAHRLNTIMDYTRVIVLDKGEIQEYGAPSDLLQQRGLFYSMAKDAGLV
Below, each entry is listed with its recorded Ratio.
Please respond with just the number, no unit label.

O=C(Nc1c2c(nc3ccccc13)N(Cc1cccc(Cl)c1)CC2)C12CC3CC(CC(C3)C1)C2 ... 1.2
CC(C)(C)c1cc(CCC(=O)Nc2c3c(nc4ccccc24)N(Cc2ccccc2)CC3)cc(C(C)(C)C)c1O ... 1.2
CN1CCc2c1nc1ccccc1c2NC(=O)CNC(C)(C)C ... 1.2
CCCCN1CCc2c1nc1cc(Br)ccc1c2N ... 1
O=C(CN1CCCCC1)Nc1c2c(nc3ccccc13)N(Cc1ccccc1)CC2 ... 1.1

Tell me the measured Ratio of "CN1CCc2c1nc1ccccc1c2NC(=O)CN1CCCCC1" , please.
1.2

Consider next the molecule "Nc1c2c(nc3ccccc13)N(Cc1ccccc1)CC2" in the same way.
1

Quick one: "Nc1c2c(nc3cc(Br)ccc13)N(Cc1ccccc1)CC2"
1.3

Next entry: "Cc1ccc2nc3c(c(N)c2c1)CCN3Cc1ccccc1"
1.2

Also check "CN1CCc2c1nc1ccccc1c2NC(=O)CNCCc1ccc(O)cc1"
1.4

"Nc1c2c(nc3ccccc13)N(c1ccccc1)CC2" , same question.
1.1

###

test: Ratio of the Pgp to that of MRP1 was determined; format: functional
PROPERTY: Ratio
// keep it numeric: no unit symbol after the value

Use the examples below as a reference point.
CN1CCc2c1nc1ccccc1c2NC(=O)CNC(C)(C)C ... 2.7
O=C(CN1CCCCC1)Nc1c2c(nc3ccccc13)N(Cc1ccccc1)CC2 ... 16
CCC(=O)Nc1c2c(nc3ccccc13)N(C)CC2 ... 1.6
CN1CCc2c1nc1ccccc1c2NC(=O)CNCCc1ccc(O)cc1 ... 1.2
CN1CCc2c1nc1ccccc1c2/N=C(/c1ccccc1)N1CCCCC1 ... 2.4

Below: the item to evaluate.
State the recorded Ratio for this entry: "CN1CCN(CC(=O)Nc2c3c(nc4ccccc24)N(Cc2ccccc2)CC3)CC1"
6.8

###

assay: Plasma clearance rate after intraperitoneal administration of 100 mg/kg in mice; format: ADME, organism-based; parameters: dose 100 mg/kg, route intraperitoneal; conditions: mouse, ip, read-out: Clp (converted)
PROPERTY: CL/F (mL/min)
Kindly provide the numeric value in mL/min only, without the unit symbol.

What does the data say about its CL/F? Entry: "O=C(Cc1ccccc1)Nc1c2c(nc3ccccc13)N(Cc1ccccc1)CC2"
1.34

###

Measured Ratio values are reported for all entries that follow.
biological target: Multidrug resistance-associated protein 1 (Homo sapiens); test: MRP1 antagonism was determined percentage of MCF-7/VP cells surviving in the absence of vincristine/percentage of MCF-7/VP cells surviving in the presence of vincristine; assay type: functional
// response body must contain only the number

Return Ratio measured with Multidrug resistance-associated protein 1 (Homo sapiens) given this compound: "CN1CCc2c1nc1ccccc1c2/N=C(/c1ccccc1)N1CCCCC1"
1

Would you kindly repeat that for "Cc1cc(C)c2c(N)c3c(nc2c1)N(Cc1ccccc1)CC3" ?
1.4

###

assay: Compound was evaluated for broad range of antagonistic activity against multi drug resistance-related protein (MRP) value expressed as IC20; type: functional; set-up: unit not given here
PROPERTY: Activity
Just the number, please.

O=C(CN1CCCCC1)Nc1c2c(nc3ccccc13)N(Cc1ccccc1)CC2 ... 1
Fc1cccc(CNc2c3c(nc4ccccc24)N(Cc2ccccc2)CC3)c1 ... 0.7

Entry under review: "O=C(Nc1c2c(nc3ccccc13)N(Cc1ccccc1)CC2)c1c(F)ccc(F)c1F" . Reported Activity?
1

###

target: UniProt P08183; assay: Pgp antagonism was determined percentage of NCI/ADR cells surviving in the absence of vinblastine/percentage of NCI/ADR cells surviving in the presence of vinblastine; assay type: functional, cell-based
Sequence (P08183 whole entry): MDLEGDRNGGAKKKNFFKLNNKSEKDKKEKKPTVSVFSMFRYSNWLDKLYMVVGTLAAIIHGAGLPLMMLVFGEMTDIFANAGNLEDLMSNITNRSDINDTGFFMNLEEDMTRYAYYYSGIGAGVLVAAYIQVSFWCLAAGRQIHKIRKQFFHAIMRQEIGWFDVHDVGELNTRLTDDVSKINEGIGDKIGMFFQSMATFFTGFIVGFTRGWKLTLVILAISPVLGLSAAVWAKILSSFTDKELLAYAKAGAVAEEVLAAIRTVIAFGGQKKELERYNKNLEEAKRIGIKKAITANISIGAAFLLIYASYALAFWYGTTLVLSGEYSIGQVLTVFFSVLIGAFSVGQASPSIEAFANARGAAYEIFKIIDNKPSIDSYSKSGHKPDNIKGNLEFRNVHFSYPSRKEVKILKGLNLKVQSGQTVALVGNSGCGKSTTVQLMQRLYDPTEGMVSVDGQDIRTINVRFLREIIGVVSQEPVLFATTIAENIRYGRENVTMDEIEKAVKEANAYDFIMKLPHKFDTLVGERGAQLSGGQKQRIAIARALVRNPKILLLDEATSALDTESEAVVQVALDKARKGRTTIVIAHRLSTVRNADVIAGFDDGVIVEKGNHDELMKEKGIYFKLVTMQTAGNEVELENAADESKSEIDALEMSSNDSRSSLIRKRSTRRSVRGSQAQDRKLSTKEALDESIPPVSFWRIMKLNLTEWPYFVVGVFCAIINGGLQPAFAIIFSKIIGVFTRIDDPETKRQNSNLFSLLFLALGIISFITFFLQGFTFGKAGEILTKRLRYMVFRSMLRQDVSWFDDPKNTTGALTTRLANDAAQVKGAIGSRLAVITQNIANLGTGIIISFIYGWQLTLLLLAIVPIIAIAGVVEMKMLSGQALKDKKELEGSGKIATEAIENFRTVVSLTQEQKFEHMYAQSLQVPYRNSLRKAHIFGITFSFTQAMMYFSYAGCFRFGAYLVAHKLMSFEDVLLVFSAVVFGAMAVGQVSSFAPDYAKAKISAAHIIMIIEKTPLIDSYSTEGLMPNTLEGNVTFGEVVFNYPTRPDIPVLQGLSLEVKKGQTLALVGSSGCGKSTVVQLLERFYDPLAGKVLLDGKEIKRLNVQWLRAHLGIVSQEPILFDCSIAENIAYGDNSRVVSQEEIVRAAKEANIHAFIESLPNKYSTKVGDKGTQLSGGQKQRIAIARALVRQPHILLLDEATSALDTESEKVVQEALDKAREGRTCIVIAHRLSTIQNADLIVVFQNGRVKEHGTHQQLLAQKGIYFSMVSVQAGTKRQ
Think of 3 as a floor: if Ratio stands on it or above, it is 1 (yes); beneath it, 0 (no).

Completed entries (count: 3):
Nc1c2c(nc3ccccc13)N(c1ccccc1)CC2 ... 0 (no)
Cc1ccc2nc3c(c(N)c2c1)CCN3Cc1ccccc1 ... 0 (no)
CC(C)NCC(=O)Nc1c2c(nc3ccccc13)N(Cc1ccccc1)CC2 ... 1 (yes)

State whether the measured Ratio reaches 3, counting equality as reaching it, for "Nc1c2c(nc3ccccc13)N(Cc1ccccc1)CC2"
1 (yes)

Entry to check: "CN1CCc2c1nc1ccccc1c2NC(=O)C12CC3CC(CC(C3)C1)C2"
1 (yes)

Now this one: "CC(C)(C)NCC(=O)Nc1c2c(nc3ccccc13)N(Cc1ccccc1)CC2"
1 (yes)

Further, for "CCN(CC)CC(=O)Nc1c2c(nc3ccccc13)N(C)CC2" ?
1 (yes)

# iterate: "CN1CCc2c1nc1ccccc1c2NC(=O)CNC(C)(C)C"
1 (yes)

###

test: Ratio of the Pgp to that of MRP1 was determined; format: functional
Each record here notes measured Ratio.
// keep it numeric: no unit symbol after the value

Request the reported Ratio associated with "O=C(Nc1c2c(nc3ccccc13)N(Cc1cccc(Cl)c1)CC2)C12CC3CC(CC(C3)C1)C2"
1

Again, but for "Cc1cc(C)c2c(N)c3c(nc2c1)N(Cc1ccccc1)CC3"
2.6

Continue with "CCCCN(CCCC)CC(=O)Nc1c2c(nc3ccccc13)N(C)CC2"
3.2

Please do the same for "CN1CCc2c1nc1ccccc1c2NC(=O)CCc1cc(C(C)(C)C)c(O)c(C(C)(C)C)c1" as well.
1

###

Reported Ratio values for the following compounds.
biological target: Multidrug resistance-associated protein 1 (Homo sapiens); assay: MRP1 antagonism was determined percentage of MCF-7/VP cells surviving in the absence of vincristine/percentage of MCF-7/VP cells surviving in the presence of vincristine; type: functional
Give a plain numeric answer without units written out.

// solved cases for Ratio follow
CCCCN(CCCC)CC(=O)Nc1c2c(nc3ccccc13)N(C)CC2 ... 1.3
CN1CCc2c1nc1ccccc1c2NC(=O)CCc1cc(C(C)(C)C)c(O)c(C(C)(C)C)c1 ... 1

State the recorded Ratio for this entry: "CN1CCc2c1nc1cc(Br)ccc1c2N"
1.6

Next: "Nc1c2c(nc3ccccc13)N(C1CCCCC1)CC2"
0.6

Then what about the compound "CCN(CC)CC(=O)Nc1c2c(nc3ccccc13)N(Cc1ccccc1)CC2" ?
1

Same thing, different compound: "CN1CCN(CC(=O)Nc2c3c(nc4ccccc24)N(Cc2ccccc2)CC3)CC1"
1.1
